Please provide measured IC90 for the entries that follow.
Test system: Acinetobacter baumannii ATCC 17978
experimentalProtocol: Antimicrobial susceptibility testing: 90% growth inhibitory concentration (IC90) determination
Type: cell-based
conditionDescription: Acinetobacter baumannii, ATCC17978, 16 h, 90% growth inhibitory concentration; Acinetobacter baumannii ATCC17978; Iso-Sensitest broth, OD 600 nm over 16h; read-out: ATCC17978 IC90
Structures can show the parent of a compound that is named as a salt.
Hi! Could you send only the number? It should be in nM, unit omitted.

Ask: IC90 of CCc1cc(Nc2nccn3c(-c4ccc(OC)c(F)c4F)cnc23)ccc1C(=O)NCCNC(=O)[C@@H](N)CN on Acinetobacter baumannii ATCC 17978?
Reply: 320

Ask: Same for COc1ccc(-c2cnc3c(Nc4ccc(C(=O)NCCCN5CCNC(C(=O)O)C5)c(C)c4)nccn23)cc1F (stereo not drawn)
Reply: 4600

Ask: Same for COc1ccc(-c2cnc3c(Nc4ccc(C(=O)N[C@H](C)CNC(C)=N)c(C)c4)nccn23)c(F)c1F
Reply: 68

Ask: Same for COc1ccc(-c2cnc3c(Nc4ccc(C(=O)NC[C@H](N)CNC(=O)[C@@H]5C[C@@H](O)CN5)c(C)c4)nccn23)c(F)c1F
Reply: 500

Ask: Same for COc1ccc(-c2cnc3c(Nc4ccc(C(=O)NCCN5CCNCC5)c(C)c4)nccn23)c(F)c1F
Reply: 180

Ask: Same for COc1ccc(-c2cnc3c(Nc4ccc(C(=O)N[C@@H](C)CN)c(C)c4)nccn23)c(F)c1F
Reply: 320

Ask: Same for COc1ccc(-c2cnc3c(Nc4ccc(C(=O)N(C)CCCCC(=O)N5CCNCC5)c(C)c4)nccn23)cc1F
Reply: 180

Ask: Same for COc1ccc(-c2cnc3c(Nc4ccc(C(=O)N(C)CCCN5CCNCC5)c(C)c4)nccn23)cc1F
Reply: 350

Ask: Same for CN(CCN1CCNCC1)C(=O)c1ccc(Nc2nccn3c(-c4ccc(OC(F)F)cc4)cnc23)cc1Cl
Reply: 460

Ask: Same for Cc1cc(Nc2nccn3c(-c4ccc(Cl)cc4)cnc23)ccc1C(=O)NCCCCN
Reply: 540

Ask: Same for CCc1cc(Nc2nccn3c(-c4ccc(Oc5cc(OC)ncn5)c(F)c4F)cnc23)ccc1C(=O)N[C@@H](C)CN
Reply: 840

Ask: Same for COc1ccc(-c2cnc3c(Nc4ccc(C(=O)NCC5(O)CCNCC5)c(C)c4)nccn23)cc1F
Reply: 2600

Ask: Same for CCc1cc(Nc2nccn3c(-c4ccc(OC(F)F)c(F)c4F)cnc23)ccc1C(=O)NC(C)(C)CCN [Example 100, hydrochloride]
Reply: 350

Ask: Same for C=Cc1cc(Nc2nccn3c(-c4ccc(OC(F)F)cc4)cnc23)ccc1C(=O)NC
Reply: 610

Ask: Same for CCc1cc(Nc2nccn3c(-c4ccc(OC)c(F)c4F)cnc23)ccc1C(=O)NCCC1CCNCC1
Reply: 200

====

Test system: Acinetobacter baumannii ATCC 17978
experimentalProtocol: Antimicrobial susceptibility testing: 90% growth inhibitory concentration (IC90) determination
Format: cell-based
conditionDescription: Acinetobacter baumannii, ATCC17978, 16 h, 90% growth inhibitory concentration; Acinetobacter baumannii ATCC17978; Iso-Sensitest broth, OD 600 nm over 16h; read-out: ATCC17978 IC90
Counter-ions that a name gives are not always drawn.
Please provide measured IC90 for the entries that follow.
Hi! Could you send only the number? It should be in nM, unit omitted.

Ask: Please give the measured IC90 for this compound: COc1ccc(-c2cnc3c(Nc4ccc(C(=O)N(C)CCC5CCNCC5)c(C)c4)nccn23)c(F)c1F
Reply: 90

Ask: Same for CCc1cc(Nc2nccn3c(-c4ccc(Cl)c(F)c4F)cnc23)ccc1C(=O)NCCCN1CCC1
Reply: 950

Ask: Same for CCc1cc(Nc2nccn3c(-c4ccc(OC)c(F)c4F)cnc23)ccc1C(=O)NCC(C)(C)CN [Example 98, hydrochloride]
Reply: 780

Ask: Same for CCc1cc(Nc2nccn3c(-c4ccc(OC)c(F)c4F)cnc23)ccc1C(=O)N[C@@H](C)C(=O)NCCNC
Reply: 650

Ask: Same for CCc1cc(Nc2nccn3c(-c4ccc(OC)c(F)c4F)cnc23)ccc1C(=O)NCc1ccncc1 [Example 560, formate]
Reply: 80

Ask: Same for CCc1cc(Nc2nccn3c(-c4ccc(OC(F)F)c(F)c4F)cnc23)ccc1C(=O)NCCNC(=O)[C@@H](N)CCCNC(=N)N
Reply: 340

Ask: Same for CCc1cc(Nc2nccn3c(-c4ccc(OC)c(F)c4F)cnc23)ccc1C(=O)NC1(CNC(=O)[C@@H](N)CCCCN)CC1
Reply: 280

Ask: Same for COc1ccc(-c2cnc3c(Nc4ccc(C(=O)N(C)C)cc4)nccn23)cc1
Reply: 400

Ask: Same for Cc1cc(Nc2nccn3c(-c4ccc(OC(F)F)cc4)cnc23)ccc1C(=O)N(C)CC(=O)N(C)CC(=O)N1CCN(C)CC1
Reply: 3600

Ask: Same for CCc1cc(Nc2nccn3c(-c4ccc(OC)c(F)c4F)cnc23)ccc1C(=O)N[C@H](C)CCN [Example 303, hydrochloride]
Reply: 360

Ask: Same for Cc1cc(Nc2nccn3c(-c4ccc(OC(F)F)cc4)cnc23)ccc1C(=O)NCC1CNCCO1 (stereo not shown)
Reply: 2000

Ask: Same for COc1ccc(-c2cnc3c(Nc4ccc(C(=O)N(C)Cc5ccncn5)c(C)c4)nccn23)cc1F
Reply: 240

Ask: Same for CCc1cc(Nc2nccn3c(-c4ccc(OC)c(F)c4F)cnc23)ccc1C(=O)NCC(=O)NCCN1CCC1
Reply: 300

Ask: Same for CCc1cc(Nc2nccn3c(-c4ccc(OC)c(F)c4F)cnc23)ccc1C(=O)NCC(O)CNC(=O)[C@@H](N)CCNC(=N)N (mixture of isomers) [Example 416, diformate]
Reply: 240

Ask: Same for CCc1cc(Nc2nccn3c(-c4ccc(OC)c(F)c4F)cnc23)ccc1C(=O)NCCCNC(=O)NCCN
Reply: 180

Ask: Same for CCc1cc(Nc2nccn3c(-c4ccc(OC)c(F)c4F)cnc23)ccc1C(=O)NCCNC(=O)CN
Reply: 120

Ask: Same for COc1ccc(-c2cnc3c(Nc4ccc(C(=O)N[C@H](C)CN)c(C)c4)nccn23)c(F)c1F
Reply: 130

Ask: Same for COc1ccc(-c2cnc3c(Nc4ccc(C(=O)NCCCCN5CCOCC5)c(C)c4)nccn23)cc1F
Reply: 270

Ask: Same for CCc1cc(Nc2nccn3c(-c4ccc(OC)c(F)c4F)cnc23)ccc1C(=O)N[C@H](C)CNC(=N)C(C)C
Reply: 150

Ask: Same for CCc1cc(Nc2nccn3c(-c4ccc(Oc5ncccn5)c(F)c4F)cnc23)ccc1C(=O)NCC1CCN(CC2CCNC2)CC1 (stereo not shown) [Example 549, formate]
Reply: 490

Ask: Same for CCc1cc(Nc2nccn3c(-c4ccc(Oc5ccc(F)cn5)c(F)c4F)cnc23)ccc1C(=O)NCCNC(=O)CCN
Reply: 600

Ask: Same for Cc1cc(Nc2nccn3c(-c4ccc(OC(F)F)cc4)cnc23)ccc1C(=O)NCC1CCN(C(=N)N)CC1
Reply: 340

Ask: Same for Cc1cc(Nc2nccn3c(-c4ccc(OC(F)F)cc4)cnc23)ccc1C(=O)NC(CO)CN1CCOCC1 (stereo not shown)
Reply: 2700

Ask: Same for COc1ccc(-c2cnc3c(Nc4ccc(C(=O)N(C)CCO)c(C)c4)nccn23)cc1
Reply: 690

Ask: Same for Cc1cc(Nc2nccn3c(-c4ccc(OC(F)F)cc4)cnc23)ccc1C(=O)NCC(=O)N1CCOCC1
Reply: 2800

Ask: Same for CCc1cc(Nc2nccn3c(-c4ccc(OC(F)F)c(F)c4F)cnc23)ccc1C(=O)NC(C)CCN (stereo not shown) [Example 402, hydrochloride]
Reply: 570

Ask: Same for CCc1cc(Nc2nccn3c(-c4ccc(OC(F)F)c(F)c4F)cnc23)ccc1C(=O)NCC1(O)CNC1
Reply: 620

Ask: Same for CCc1cc(Nc2nccn3c(-c4ccc(OC)c(F)c4F)cnc23)ccc1C(=O)NCCCNC(=O)[C@@H](N)CNC(=N)N
Reply: 60
